The reported numbers originate from BindingDB's records for doi:10.1021/cc020096o.

Let's go through some recorded IC50 values for Dipeptidyl peptidase 4 (Homo sapiens) together.

molecule: CC(C)[C@H](N)C(=O)NC(C)P(=O)(Oc1ccccc1)Oc1ccccc1 (stereo partly drawn)
IC50: > 500 µM

molecule: NCC[C@H](N)C(=O)NC(C1CCCCC1)P(=O)(Oc1ccccc1)Oc1ccccc1 (stereo partly drawn)
IC50: 1000 µM

Required: IC50, one value per molecule below.
1. CCC(C)[C@H](N)C(=O)NC(c1ccccc1)P(=O)(Oc1ccccc1)Oc1ccccc1 (stereo partly drawn)
2. CC(NC(=O)[C@@H](N)CCCCN)P(=O)(Oc1ccccc1)Oc1ccccc1 (stereo partly drawn)
3. CC(NC(=O)[C@@H](N)CC1CCCCC1)P(=O)(Oc1ccccc1)Oc1ccccc1 (stereo partly drawn)
4. CCC(C)[C@H](N)C(=O)NC(c1cccc(C#N)c1)P(=O)(Oc1ccccc1)Oc1ccccc1 (stereo partly drawn)
5. CCC(C)[C@H](N)C(=O)NC(CC(C)C)P(=O)(Oc1ccccc1)Oc1ccccc1 (stereo partly drawn)

1: > 250 µM; 2: > 500 µM; 3: > 500 µM; 4: > 125 µM; 5: > 1000 µM

Looking up N[C@@H](Cc1cnc[nH]1)C(=O)NC(C1CCCCC1)P(=O)(Oc1ccccc1)Oc1ccccc1 (stereo partly drawn) , I see its IC50 listed as > 1000 µM
